The values you see were collected from PubChem BioAssay (NCI).

tested on: UACC-62 melanoma; assay: NCI-60 one-dose screen, 48 h; settings: 10 µM unless noted
About 83,000 compounds went through this panel and 20% of them were active in at least one assay; those are over-represented in the sample as a whole. Activity calls are given as the source filed them. Rule for the calls: active = growth percent below 10; inactive = the rest.
Labels: active, inactive

compound=C/C(=N/O)c1ccc(NC(=O)Cn2nc(-c3ccc(Cl)cc3)nc2N)cc1 labelvalue=inactive
compound=COc1ccc(C(=O)NC(=O)Nc2ccc3c(c2)NC(=O)/C3=C\c2[nH]c(C)c(C(=O)O)c2C)cc1 labelvalue=inactive
compound="CC(=O)N1N=C2N(Cc3ccccc3)C(=O)c3c(sc4c3CCCC4)N2C1c1cn(-c2ccccc2)nc1-c1ccc(Cl)cc1 (stereo not drawn)" labelvalue=inactive
compound=Nc1nccc2c1ccn2-c1cccc(NC(=O)c2ccc(N3CCOCC3)c(C(F)(F)F)c2)c1 labelvalue=inactive
compound="O=C(NOC1OC(CO)C(O)C(O)C1O)Nc1ccccc1 (stereo not drawn)" labelvalue=inactive
compound=CC(=O)n1cc(/C=C2\N=C(c3ccc(Cl)cc3)N(c3ccc(S(=O)(=O)Nc4nccs4)cc3)C2=O)c2ccccc21 labelvalue=inactive
compound=c1ccc(CNCCN(CCNCc2ccccn2)Cc2ccc3ccccc3c2)nc1 labelvalue=active
compound=O[C@@H]1CCO[C@H](c2ccc3ccccc3c2)C1 labelvalue=inactive
compound="Cc1ccc2oc(=O)cc(C3C(C#N)=C(N)Oc4c3ccc3ccccc43)c2c1 (stereo not drawn)" labelvalue=inactive
compound=CCOC(=O)CSc1nnc(-c2cc3c([nH]c4ccccc43)c(-c3cccc(O)c3)n2)n1-c1ccc(C)cc1 labelvalue=inactive
compound=Cn1c2ccccc2c2ssc(=S)c21 labelvalue=inactive
compound="CC(C)(C)NC(C1=CC(C)(C)c2ccccc2C1=O)c1ccccc1 (stereo not drawn)" labelvalue=active
compound="CC(Cl)(CCl)CS(=O)(=O)c1ccc(Cl)cc1 (stereo not drawn)" labelvalue=inactive
compound="COc1ccc(C[C@H](N)C(=O)N[C@@H]2[C@@H](CO)OC(n3cnc4c(N(C)C)ncnc43)[C@@H]2O)cc1 (stereo partly drawn)" labelvalue=active
compound=Cc1cccc(Cc2cnc(NC(=O)CCc3ccc(C)o3)s2)c1 labelvalue=inactive
compound="CCC(C)Nc1ccc(N)cc1 (stereo not drawn)" labelvalue=inactive
compound=Cc1[nH]n(C(=O)c2ccncc2)c(=O)c1N=Nc1ccc(S(=O)(=O)Nc2ccncn2)cc1 labelvalue=inactive
compound=O=C(Nc1ccc(-n2cc(-c3ccncc3)c(-c3ccc(O)c(Cl)c3)n2)cc1)Nc1ccc(Cl)c(C(F)(F)F)c1 labelvalue=active
compound=CCCCNc1cc(C(=O)O)cc(S(N)(=O)=O)c1Oc1ccccc1 labelvalue=inactive
compound=CC(C)C(=O)Nc1nc2c(s1)CCCc1ccn(S(=O)(=O)c3ccccc3)c1-2 labelvalue=inactive
compound=COc1ccc(/C(=C/c2cc(OC)c(OC)c(OC)c2)[N+](=O)[O-])cc1 labelvalue=active
compound=C#CC(=O)/C=C/CCCCCCC#CC(=O)CCC(=O)C#CCCCCCC/C=C/C(=O)C#C labelvalue=active
compound=Nc1n[nH]c2cccc(C#Cc3cccc(NC(=O)c4cccc(C(F)(F)F)c4)c3)c12 labelvalue=inactive
compound=Nc1nccc2c1ccn2-c1ccc(NC(=O)c2ccc(N3CCOCC3)c(C(F)(F)F)c2)cc1 labelvalue=active
compound="COc1ccc2c(c1)OC(N(C(C)=O)C(C)=O)=C(C#N)C2c1ccc(F)cc1 (stereo not drawn)" labelvalue=inactive
compound=c1ccc2nc(Cn3cc[n+](Cc4ccc5ccccc5n4)c3)ccc2c1 labelvalue=inactive
compound=CC(C)(C)OC(=O)N1CCN(CCn2cc(C(F)(F)F)c3c(Cl)ncnc32)CC1 labelvalue=inactive
compound=O=C(c1ccccc1)[C@H]1[C@@H]2CCCN2[C@]2(C(=O)Nc3ccc(F)cc32)[C@]12C(=O)Nc1ccccc12 labelvalue=inactive
compound=C=C1C(=O)O[C@H]2[C@H]1CC/C(CNC(=O)/C1=C/CC[C@@]3(C)O[C@H]3[C@H]3OC(=O)C(=C)[C@@H]3CC1)=C\CC[C@@]1(C)O[C@@H]21 labelvalue=inactive
compound=FC(F)(F)c1cn(CC2CNC2)c2ncnc(Cl)c12 labelvalue=inactive
compound=CCn1c(SC)nnc1-c1cc2c([nH]c3ccccc32)c(-c2cccc(O)c2)n1 labelvalue=inactive
compound="O=C1OC(N(Cc2ccc(Cl)cc2)c2ccccc2)c2ccccc21 (stereo not drawn)" labelvalue=inactive
compound=Nc1nccc2c1ccn2-c1ccc(NC(=O)Nc2cccc(C(F)(F)F)c2)cc1 labelvalue=inactive
